Tested on: Sam68 (KHDRBS1)
protocol-description: compounds binding KHDRBS1 protein – biochemical, small-molecule microarray, 635 nm fluorescence, primary screen (AID 1125);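 note: score merges 667 nm channel intensity with signal to noise over triplicate slides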
conditions-used: higher = more signal

compound	composite z-score
COC(=O)[C@@]1(Cc2ccc(OC)cc2)[C@H]2c3cc(C(=O)N4CCCC4)n(C[C@H](O)CO)c3C[C@H]2CN1C(=O)c1ccccc1	-0.0743
C=CCN1C(=O)[C@]2(COC(c3ccc(OCCCO)cc3)=N2)Cc2ccccc21	0.487
Cc1ccc(S[C@]2(C(=O)NCCCN(C)C)CC(=O)N(C(C)C)[C@@H]2c2ccc(CO)cc2I)cc1	0.271
C=CCOC(=O)[C@@H]1[C@H]2C(=O)O[C@H](c3ccccc3)[C@H](c3ccccc3)N2[C@H](c2ccc(OCCOC(=O)[C@H]3C[C@H]4C(=O)N[C@@H](Cc5ccccc5)C(=O)N4[C@H]3c3ccc(O)cc3)cc2)[C@@]12C(=O)Nc1ccc(I)cc12	1.29
O=C(NCC(O)CO)[C@]1(CCS(=O)(=O)c2ccccc2)N=C(c2ccc(OCCCO)cc2)O[C@@H]1c1ccccc1 (stereo partly specified)	1.23
C=CCNC(=O)[C@H]1[C@@H]2C(=O)O[C@@H](c3ccccc3)[C@@H](c3ccccc3)N2[C@@H](c2ccc(OCCO)cc2)[C@]12C(=O)N(C(=O)OCCOC)c1ccc(C#CC3(O)CCCCCC3)cc12	1.3
